System: RXF 393 renal
assayNotes: NCI-60 one-dose screen, 48 h (100 = growth as untreated, 0 = no growth, -100 = all killed)
measurementConditions: 10 µM unless noted
Compounds without any hit were thinned out: in the full panel of roughly 83,000, 20% have a hit. Active and inactive are the calls of the source. How the source made its calls: active means growth percent below 10; inactive means the rest.
property: growth

Look over these answered cases.
[[record]]
compound = "Cc1cccc2nnc(-c3ccccc3)n12"
testsystem = "RXF 393 renal"
reportedvalue = "117% (inactive)"

[[record]]
compound = "O=C1C=CC(=O)N1c1ccccn1"
testsystem = "RXF 393 renal"
reportedvalue = "126% (inactive)"

[[record]]
compound = "NC(=NCCCCCCN=C(N)/N=C(\\N)Nc1ccc(Cl)cc1)/N=C(\\N)Nc1ccc(Cl)cc1"
testsystem = "RXF 393 renal"
reportedvalue = "1.06% (active)"

[[record]]
compound = "Cc1ccc(N/N=C(/C(=O)c2ccc(Cl)cc2)c2nc(C)cc(=O)[nH]2)cc1"
testsystem = "RXF 393 renal"
reportedvalue = "40.7% (inactive)"

[[record]]
compound = "C=CCN(/C=C/CN(CC=C)CC=C)CC=C"
testsystem = "RXF 393 renal"
reportedvalue = "111% (inactive)"


Would you mind listing growth for each of the following compounds?
1. COc1ccc2c(c1)sc1nc(-c3ccc(Br)cc3)cn12
2. Nc1nc2c(nnn2Cc2ccc(Cl)c(Cl)c2)c(=O)[nH]1
3. O=[N+]([O-])c1ccc(NS(=O)(=O)c2ccc(Cl)c(Cl)c2)cc1
4. COc1cc(-c2nc3nc4sc(C)c(C)c4c(=O)n3[nH]2)cc(OC)c1OC
5. O=C1C2C(C(=O)N1CC[Se][Se]CCN1C(=O)C3C(C1=O)[C@H]1C=C[C@@H]3C1)[C@H]1C=C[C@@H]2C1 (stereo partly drawn)
6. Cc1cc(C)c(C(=O)c2cccs2)c(C)c1
7. O=C(Nc1ccccc1)P(=O)(O)c1ccccc1
8. Nc1ccccc1-c1ccn[nH]1

1: 109% (inactive); 2: 107% (inactive); 3: 93.2% (inactive); 4: 78.9% (inactive); 5: -89% (active); 6: 110% (inactive); 7: 105% (inactive); 8: 111% (inactive)
